Target: Gelatinase E (GelE) (Enterococcus faecalis (strain ATCC 700802 / V583), UniProt Q833V7)
Sequence (Q833V7 193-510 limits assumed): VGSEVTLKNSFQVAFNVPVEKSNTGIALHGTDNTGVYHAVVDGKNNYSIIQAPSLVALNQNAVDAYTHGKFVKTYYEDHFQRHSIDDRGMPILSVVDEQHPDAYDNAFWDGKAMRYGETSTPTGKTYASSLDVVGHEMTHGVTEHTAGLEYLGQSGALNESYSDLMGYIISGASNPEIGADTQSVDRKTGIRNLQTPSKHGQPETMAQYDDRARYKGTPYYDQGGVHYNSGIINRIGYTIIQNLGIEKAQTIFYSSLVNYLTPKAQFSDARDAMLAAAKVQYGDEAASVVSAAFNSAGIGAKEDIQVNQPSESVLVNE
Test: Gelatinase E activity assay (FRET peptide substrate)
Conditions: Table 11
Method: Gelatinase E (Gel E) was purified from bacterial culture supernatant from E. faecalis. E. faecalis was cultured aerobically in Todd Hewitt Broth overnight at 37° C. Nucleic acid was precipitated with 0.9% protamine solution, followed by protein precipitation with ammonium sulfate. Resuspended protein pellet was further subjected to purification using FPLC (phenyl Sepharose column). Fractions with gelatinase activity as determined by casein agar assay were pooled and further concentrated. […]
Threshold 200 nM. IC50 below it: 1.0. IC50 at it or above: 0.0.

Here are 5 compounds together with their reported answers.
COc1ccc(S(=O)(=O)N(CC(=O)NO)CC(C)C)cn1 ... 0.0
CC(C)CN(CC(=O)NO)S(=O)(=O)c1ccc(OCC(=O)NCc2ccc(C(F)(F)F)cc2)cc1 ... 0.0
CSc1ccc(S(=O)(=O)N(CC(=O)NO)CC(C)C)cc1 ... 0.0
CNC(=O)COc1ccc(S(=O)(=O)N(CC(=O)NO)CC(C)C)cc1 ... 0.0
CC(C)CN(CC(=O)NO)S(=O)(=O)c1ccc(OCC(=O)NCc2ccsc2)cc1 ... 1.0

// query Identify whether the compound `CC(C)CN(CC(=O)NO)S(=O)(=O)c1ccc(OC(C)C)cc1` records IC50 below 200 nM.
// result 0.0

// query Identify whether the compound `CC(C)CN(CC(=O)NO)S(=O)(=O)c1ccc(OCC(=O)NCc2cccc(C(F)(F)F)c2)cc1` records IC50 below 200 nM.
// result 1.0

// query Identify whether the compound `CSc1cccc(CNC(=O)COc2ccc(S(=O)(=O)N(CC(=O)NO)CC(C)C)cc2)c1` records IC50 below 200 nM.
// result 1.0

src = patent US20230357139A1
